Tested on: Enterococcus faecalis
test_description: In vitro antibacterial activity against Streptococcus faecalis MGH-2.
Assay type: functional
MIC for assorted molecules

As a guide, the following entries are already answered.
> print(dat)
                                   molecule                 target       reading
1  Nc1nc(N)c2cc(S(=O)(=O)N3CCCCC3Cc3ccccc3)ccc2n1 (stereo not drawn)  Enterococcus faecalis  < 0.25 µg/mL
2  Nc1nc(N)c2cc(S(=O)(=O)Nc3ccc4ccccc4c3)ccc2n1  Enterococcus faecalis       5 µg/mL
3  Nc1nc(N)c2cc(S(=O)(=O)Nc3cccc(Br)c3)ccc2n1  Enterococcus faecalis    > 25 µg/mL
4  CN(c1cccc(Cl)c1)S(=O)(=O)c1ccc2nc(N)nc(N)c2c1  Enterococcus faecalis    > 25 µg/mL
5  CN(c1ccccc1)S(=O)(=O)c1ccc2nc(N)nc(N)c2c1  Enterococcus faecalis    > 25 µg/mL

*Q* Requested field: MIC. Item: Nc1nc(N)c2cc(S(=O)(=O)N3CCSCC3)ccc2n1
*A* < 0.25 µg/mL

*Q* Requested field: MIC. Item: CN(C)S(=O)(=O)c1ccc2nc(N)nc(N)c2c1Cl
*A* < 0.25 µg/mL

*Q* Requested field: MIC. Item: CCN(CC)CCN(C)S(=O)(=O)c1ccc2nc(N)nc(N)c2c1
*A* 20 µg/mL

*Q* Requested field: MIC. Item: CCOC(=O)N1CCN(S(=O)(=O)c2ccc3nc(N)nc(N)c3c2)CC1
*A* 2 µg/mL

*Q* Requested field: MIC. Item: Nc1nc(N)c2cc(S(N)(=O)=O)ccc2n1
*A* > 25 µg/mL

*Q* Requested field: MIC. Item: Nc1nc(N)c2cc(S(=O)(=O)N3CCC(N4CCCCC4)CC3)ccc2n1
*A* > 25 µg/mL

*Q* Requested field: MIC. Item: Nc1nc(N)c2cc(S(=O)(=O)N3CCOCC3)ccc2n1
*A* < 0.25 µg/mL

*Q* Requested field: MIC. Item: CN1CCN(S(=O)(=O)c2ccc3nc(N)nc(N)c3c2)CC1
*A* 2 µg/mL

*Q* Requested field: MIC. Item: Cc1c(S(=O)(=O)N(C)C)ccc2nc(N)nc(N)c12
*A* < 0.25 µg/mL

*Q* Requested field: MIC. Item: Nc1nc(N)c2cc(S(=O)(=O)N3CCCC3)ccc2n1
*A* < 0.25 µg/mL

*Q* Requested field: MIC. Item: CCN(CC)S(=O)(=O)c1ccc2nc(N)nc(N)c2c1Cl
*A* < 0.25 µg/mL

*Q* Requested field: MIC. Item: CN(Cc1ccc(Cl)c(Cl)c1)S(=O)(=O)c1ccc2nc(N)nc(N)c2c1
*A* > 25 µg/mL

*Q* Requested field: MIC. Item: Nc1nc(N)c2cc(S(=O)(=O)N3CCCCC3)ccc2n1
*A* < 0.25 µg/mL

Values compiled from ChEMBL document CHEMBL1122803.
